- TESTED_TARGET: Exportin-1 (Homo sapiens, UniProt O14980)
- Sequence (O14980 whole entry, the tested form may be a part): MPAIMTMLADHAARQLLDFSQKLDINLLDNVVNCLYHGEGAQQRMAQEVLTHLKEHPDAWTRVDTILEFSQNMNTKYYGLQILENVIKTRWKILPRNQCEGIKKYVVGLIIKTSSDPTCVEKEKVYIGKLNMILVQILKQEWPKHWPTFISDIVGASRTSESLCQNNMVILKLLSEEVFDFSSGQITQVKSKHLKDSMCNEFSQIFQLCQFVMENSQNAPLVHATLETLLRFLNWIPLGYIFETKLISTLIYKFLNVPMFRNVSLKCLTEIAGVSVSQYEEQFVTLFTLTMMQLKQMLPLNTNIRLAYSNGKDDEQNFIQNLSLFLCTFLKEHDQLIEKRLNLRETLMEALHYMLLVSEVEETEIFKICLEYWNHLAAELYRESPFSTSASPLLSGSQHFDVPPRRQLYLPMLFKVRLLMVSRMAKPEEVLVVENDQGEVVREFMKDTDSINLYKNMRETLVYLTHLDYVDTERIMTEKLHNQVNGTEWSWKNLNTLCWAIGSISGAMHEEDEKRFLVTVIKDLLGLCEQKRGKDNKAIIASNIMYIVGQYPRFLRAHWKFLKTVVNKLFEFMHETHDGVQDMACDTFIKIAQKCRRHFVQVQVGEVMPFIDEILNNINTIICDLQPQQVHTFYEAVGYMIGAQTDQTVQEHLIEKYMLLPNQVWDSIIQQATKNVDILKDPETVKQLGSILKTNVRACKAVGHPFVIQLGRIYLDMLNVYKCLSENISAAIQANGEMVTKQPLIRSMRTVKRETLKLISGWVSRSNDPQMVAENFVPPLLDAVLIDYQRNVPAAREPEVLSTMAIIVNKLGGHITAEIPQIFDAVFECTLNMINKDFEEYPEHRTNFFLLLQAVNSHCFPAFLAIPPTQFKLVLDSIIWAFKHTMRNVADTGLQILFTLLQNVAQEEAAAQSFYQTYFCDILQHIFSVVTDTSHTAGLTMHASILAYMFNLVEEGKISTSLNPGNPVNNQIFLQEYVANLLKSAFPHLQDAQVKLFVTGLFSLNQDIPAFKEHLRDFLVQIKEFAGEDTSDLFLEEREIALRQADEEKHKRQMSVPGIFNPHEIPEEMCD
- PROTOCOL_DETAILS: Inhibition of Crm1 in human U2OS cells expressing GFP-fused HIV1 Rev assessed as decrease in nuclear export of GFP-fused HIV1 Rev after 1 hr by Hoechst 33258 staining-based assay
- Format: cell-based
pIC50: −log10 of the molar value.
READOUT_NAME: pIC50

Form field - read-out: pIC50; system: Exportin-1 (Homo sapiens, UniProt O14980); submitted item: COc1cc(-c2ncn(/C=C\C(=O)OC(C)C)n2)cc(Cl)n1
≥ 6.00

What do you have for CC(C)OC(=O)/C=C\n1cnc(-c2cc(Cl)cc(OC(C)C)c2)n1 ?
≥ 6.00

Record: CC(C)OC(=O)/C=C\n1cnc(-c2cccc(Cl)c2)n1
≥ 6.00

// next record COc1ccc(Cl)cc1-c1ncn(/C=C\C(=O)OC(C)C)n1
≥ 6.00

What about this molecule? CC(C)OC(=O)/C=C\n1cnc(-c2ccc(Oc3ccc(Cl)cc3)cc2)n1
5.00 to 6.00

Try this molecule too: CC(C)OC(=O)/C=C\n1cnc(-c2cc(OCCN3CCCC3)cc(C(F)(F)F)c2)n1
≥ 6.00

Same for CC(C)OC(=O)/C=C/n1cnc(-c2cccc(Cl)c2)n1
≤ 5.00
